Data credit: the RepoRT retention time repository (doi:10.1016/j.foodchem.2012.08.062)

experiment: RP, Waters ACQUITY UPLC BEH Shield RP18, 150 × 3 mm, 1.7 µm, 40 °C, 0.5 mL/min, estimated dead time 1.4 min; A: water + 0.1% formic acid; B: acetonitrile + 0.1% formic acid; gradient (min/%B) 0/0 9.91/26 18.51/65 18.76/100 20.76/100; conditions: stereoisomer not certain

- MOLECULE: "O=C1CC(c2ccc(O)cc2)Oc2cc(O)cc(O)c21 (stereo unspecified)"
  LC retention time: "17.1 min"
- MOLECULE: "O=c1c(OC2OC(CO)C(O)C2O)c(-c2ccc(O)c(O)c2)oc2cc(O)cc(O)c12 (stereo unspecified)"
  LC retention time: "13.7 min"
- MOLECULE: "CC1OC(Oc2c(-c3ccc(O)c(O)c3)oc3cc(O)cc(O)c3c2=O)C(O)C(O)C1O (stereo unspecified)"
  LC retention time: "14 min"
- MOLECULE: "COc1cc(C=CC(=O)O)cc(OC)c1O"
  LC retention time: "12.7 min"
- MOLECULE: "O=C1c2c(O)cc(O)cc2OC(c2ccc(O)c(O)c2)C1O (stereo unspecified)"
  LC retention time: "13.3 min"
- MOLECULE: "O=c1c(OC2OC(CO)C(O)C(O)C2O)c(-c2ccc(O)cc2)oc2cc(O)cc(O)c12 (stereo unspecified)"
  LC retention time: "13.8 min"
